Protocol summary: Stability of inactivators at 37°C (spectrophotometric half life)
Format: physicochemical
Condition: 0.1mM in PBS (pH 7-7.2), read-out: T1/2(h) in PBS (converted)
A collection of molecules and their measured half-life at 100 µM

- Molecule: "Nc1nc(OCc2ccccn2)c2nc[nH]c2n1"
  Comparison operator: ">"
  half-life at 100 µM (h): 16
- Molecule: "Nc1nc(OCc2ccoc2)c2nc[nH]c2n1"
  Comparison operator: ">"
  half-life at 100 µM (h): 16
- Molecule: "CC(Oc1nc(N)nc2[nH]cnc12)c1ccsc1 (racemic) [B.4219, DL-O^6-[1-(3-thienyl)ethyl]guanine]"
  Comparison operator: "="
  half-life at 100 µM (h): 0.12
- Molecule: "Nc1nc(OCc2ccc3c(c2)OCO3)c2ncn([C@@H]3O[C@H](CO)[C@@H](O)[C@H]3O)c2n1"
  Comparison operator: "="
  half-life at 100 µM (h): 8
